- Test system: EPHB2;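 also: KINOMEscan kinase panel screen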
- Condition Set: concentration: 1 μM, replicates: in singlicate; n = 1
Hi there, I'd appreciate the recorded %Inh for every entry that follows.
Numbers only, in %.

See these solved cases before continuing.
- Cl.Cl.NC(CNC(=O)c1cc(Br)c(-c2ccnc3[nH]ccc23)s1)c1ccccc1 (centres unmarked) [GSK1322949]: 15
- COc1cccc2c(-c3ccncc3)c(-c3ccc(F)cc3)nn12 [GW468513]: 0
- Cc1cc(-c2c(-c3ccc(F)cc3)ncn2CCCN2CCOCC2)nc(N)n1 [SB-222517]: 12
- Cc1ccc(O)cc1Nc1ccnc2ccc(C(C)(C)C)cc12 [GW856805]: 92.5
- COc1cc(Nc2nccc(N3CCC(NS(=O)(=O)c4ccc(NC(C)=O)cc4)CC3)n2)cc(OC)c1OC [GSK1379825]: 30
- Cc1ccc(-c2ccc3occ(-c4ccc(S(C)=O)cc4)c3c2)nn1 (centres unmarked): 14
- COC(=O)Nc1nc2ccc(Oc3ccc(CC(=O)Nc4cc(C(F)(F)F)ccc4F)cc3)cc2[nH]1 [GW680903]: 26

Input line: Return value of %Inh for input CN(c1ccc2c(c1)nc(NCc1ccccc1)n2C)c1ccnc(Nc2ccc(CS(C)(=O)=O)cc2)n1.Cl [GW811603] , no commentary.
Output line: 0
